MEASURED_TARGET: RSV F protein of subtype B (18537) on recombinant mKate-RSV virus (Respiratory syncytial virus subtype B …, UniProt P13843 26-574)
ASSAY_NOTES: cell-based or functional assay
Outcome label depends on Neut IC50 (µg/ml) subtype B relative to 0.4 µg/mL: at/above gives Condition met, below gives Condition not met.

1. ADI-18906 (antibody, V domains shown, full-length IgG from yeast) VH: EVQLVESGGGVVQPGRSLRLSCVASGFSFSMHGMHWVRQAPGKGLEWVTAIWYDGSNKYYADSVKGRFTISRDNSRNTLYLQMNSLRAEDTAVYYCARDHASTPYYMDVWGKGTTVTVSS VL: ETTLTQSPGTLSLSPGESATLSCRTSQRISSTYLAWYRQKPGQAPRLLMYGASSRATGIPDRFSGSGSGTDFTLTISSLEPEDFALYYCQQYGSFPWTFGQGTKVEIK	Condition met
2. ADI-18897 (antibody, V domains shown, full-length IgG from yeast) VH: EVQLVESGGGLVQPGGSLRLSCAASGFTIGTYWMSWVRQAPGKGLEWVANIKPDGSEQYYGDSVKGRFTISRDNAKNSLYLQMHSLRAEDAAVFYCARDTPDVLRHLEWPPVGAFDIWGQGTTVTVSS VL: EIVMTQSPDSLAVSLGERATINCKSSQSLFYSSTNQHYLAWYQQKPGQPPELLIYWASIRESGVPDRFSGSGSGTDFTLTISSLQAADVAVYYCQQYYSSPQTFGQGTKVEIK	Condition met
3. ADI-18876 (antibody, V domains shown, full-length IgG from yeast) VH: QVQLQESGPGLVKPSQTLSLTCTVSGPSISSGDYYWTWIRQPPGKGLEWIGYIYNSGSTDYNPSLKSRITMSLDRSKNQFSLNLSSVTAADTAVYFCARDVGTLVLPTVAYYYGMDVWGQGTTVTVSS VL: EIVLTQSPGTLSLSPGERATLSCRASESISSSYLAWYQQKPGQAPRLLIYDASSRATGIPDRFSGSGSGTDFTLTISSLEPEDFAVYYCQQYGSSPLVTFGPGTKVDIK	Condition not met
4. ADI-18920 (antibody, V domains shown, full-length IgG from yeast; also called Antibody Number 274; Ab # 274) VH: EVQLLESGGGVVQPGRSLRLSCAASGFTFSSYAMHWVRQTPDKGLEWVALISDDGRNEYYADSVQGRFTISRDKSKNTLHLEMNSLRAEDTAVYYCAKVRNEAWELLGNDDALDVWGQGTMVTVSS VL: QSVLTQPPSVSAAPGQKVTISCSGTSFNIGSNYVSWYQLLPGTAPKLLIFDNYKRPSGIPDRFSGSWSGTSATLAISGLQTGDEAEYFCGTWDTSLRAGVFGGGTKLTVL	Condition not met

Tell me whether Neut IC50 (µg/ml) subtype B is at least 0.4 µg/mL here: ADI-18938 (antibody, V domains shown, full-length IgG from yeast; also called Antibody Number 291; Ab # 291) VH: EVQLLESGGGLVQPGGSLRLSCAASGFTFSNYWMHWVRQAPGKGLVWVSRISGDGSDTTYADSVEGRFTISRDNARSTLYLQLNSLTGDDTAVYYCARDLWTTSPYFDLWGQGTLVTVSS VL: EIVLTQSPGTLSASIGDRVTITCRASQSLNGWLAWYQQKPGKAPRLLIYKSSSLESGVPSRFSGSASGTEFTLTISSLQPDDFATYYCQQYNSWAFGQGTKVDVK
Condition met

// inclusive: Neut IC50 (µg/ml) subtype B at least 0.4 µg/mL? input: ADI-18953 (antibody, V domains shown, full-length IgG from yeast) VH: QVQLVQSGAEVKKPGSSVKVSCKASGGTFSGYAINWVRQAPGQGLEWMGGIIHIFGTVNYAPKFQGRLTITADASTGTAYMELSSLMSEDTALYYCARDAYEVWTGSYLPPFDYWGQGTLVTVSS VL: ETTLTQSPGTLSLSPGERVTLSCRASQTVTSNYLAWYQQKPGQAPRLLIYDAFTRATGVPARFSGSGSGTDFTLTISRLEPEDFAVYYCQQYGSSFLTFGGGTKVEIK
Condition not met
